target: 5-HT2C edited (accession number AAF35842.1) (Homo sapiens, UniProt P28335, I156V/I160V/N158S); experiment: cell-based
Sequence (P28335 33-458 I156V/N158S/I160V limits assumed): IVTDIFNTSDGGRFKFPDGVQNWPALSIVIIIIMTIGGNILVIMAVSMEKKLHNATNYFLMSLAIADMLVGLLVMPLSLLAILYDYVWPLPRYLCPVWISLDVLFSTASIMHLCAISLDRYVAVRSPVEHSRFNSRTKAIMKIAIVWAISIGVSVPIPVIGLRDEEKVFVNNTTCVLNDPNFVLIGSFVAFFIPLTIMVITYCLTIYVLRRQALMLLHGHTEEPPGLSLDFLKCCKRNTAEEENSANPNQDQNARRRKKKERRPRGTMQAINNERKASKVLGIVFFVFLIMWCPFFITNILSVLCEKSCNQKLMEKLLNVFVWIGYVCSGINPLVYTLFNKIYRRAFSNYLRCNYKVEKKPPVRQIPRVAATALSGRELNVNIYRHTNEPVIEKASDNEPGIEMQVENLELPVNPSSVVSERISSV
pEC50: −log10 of the molar value.
reported-metric: pEC50

• Cc1ccc2c3c([nH]c2n1)CCN(C)CC3 = 6.00 to 7.00
• Cn1c2c(c3cccnc31)CCNCC2 = > 8.00
• Cc1ccc2c3c(n(C)c2n1)CCNCC3 = 7.00 to 8.00
• Cc1ccc2c3c([nH]c2n1)CCNCC3 = 7.00 to 8.00

Prompt: Indicate the recorded pEC50 value for this compound: c1cnc2[nH]c3c(c2c1)CCN(C1COC1)CC3
Completion: 5.00 to 6.00

Prompt: Indicate the recorded pEC50 value for this compound: c1cnc2[nH]c3c(c2c1)CCNCC3
Completion: > 8.00

Prompt: Indicate the recorded pEC50 value for this compound: CN1CCc2c(n(C)c3ncccc23)CC1
Completion: 7.00 to 8.00

Prompt: Indicate the recorded pEC50 value for this compound: CN1CCc2c(n(C)c3ncc(Cl)cc23)CC1
Completion: 7.00 to 8.00

Prompt: Indicate the recorded pEC50 value for this compound: Cc1ccc2c3c(n(C)c2n1)CCN(C)CC3
Completion: 6.00 to 7.00

Prompt: Indicate the recorded pEC50 value for this compound: COc1ccc2[nH]c3c(c2n1)CCN(C)CC3
Completion: 7.00 to 8.00

Prompt: Indicate the recorded pEC50 value for this compound: CN1CCc2[nH]c3nc(Br)ccc3c2CC1
Completion: 7.00 to 8.00
